Here the recorded AC50 is given for each entry.
target-system: Transforming acidic coiled-coil-containing protein 3 (Homo sapiens) (UniProt Q9Y6A5)
assay-text: inhibition of ARNT PAS-B/TACC3 complex formation – biochemical, AlphaScreen, cherry-picked samples, confirmation (AID 651703);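 also: TACC3 partner is the GST-tagged E629A mutant dimer; hits lower the signal meaning they disrupt ARNT binding to TACC3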
test-parameters: AlphaScreen His-ARNT PAS-B / GST-TACC3 binding, luminescence
assay-metric: AC50

item-smiles: CN1CCN(C(=O)c2cccc(-c3cc(O)c4ncccc4c3)c2)CC1
target-system: Transforming acidic coiled-coil-containing protein 3 (Homo sapiens) (UniProt Q9Y6A5)
observed-result: 2.72 µM
--
item-smiles: O=C(N[C@@H]1CC[C@@H](CCn2cc(-c3ccccn3)nn2)O[C@@H]1CO)c1ccncc1
target-system: Transforming acidic coiled-coil-containing protein 3 (Homo sapiens) (UniProt Q9Y6A5)
observed-result: 10.3 µM
--
item-smiles: Cc1[nH][nH]c(=O)c1C(c1ccc(-c2ccc(C(=O)O)cc2)o1)c1c(C)[nH][nH]c1=O
target-system: Transforming acidic coiled-coil-containing protein 3 (Homo sapiens) (UniProt Q9Y6A5)
observed-result: 64.1 µM
--
item-smiles: COc1cc(NCCCCCCN)c2ncccc2c1OC
target-system: Transforming acidic coiled-coil-containing protein 3 (Homo sapiens) (UniProt Q9Y6A5)
observed-result: 16.1 µM
